# METHOD DESCRIPTION: Pharmacokinetics of PAR1 pepducins in CF-1 mice, plasma LC/MS/MS
# Format: in vivo, mouse
# SETUP CONDITIONS: mouse, plasma, sc; 10 mg/kg s.c., CF-1 mice; read-out: Peak plasma level
# Description: FIG. 14 illustrates pharmacokinetics of PAR1 pepducins. […] Pepducin levels in plasma were quantified with LC/MS/MS. (B): Daily (D1 to D6) plasma levels of P1pal-7 after subcutaneous injection of 10 mg/kg P1pal-7 were measured at 1 hour (open circles) and 24 hours (open squares). […] Lastly, the peak plasma level of P1pal-7 (10 mg/kg) was measured before and 1 hour after once-daily subcutaneous injection over 6 days to determine whether the peak plasma levels were consistent on daily administration.
Peptide text beside a SMILES is read from it. * marks the point of attachment. Palmitoyl = CCCCCCCCCCCCCCCC(=O)*
ENDPOINT NAME: Cmax

[[record]]
compound = "CCCCCCCCCCCCCCCC(=O)N[C@@H](CC(N)=O)C(=O)N[C@@H](CCCNC(=N)N)C(=O)N[C@@H](CO)C(=O)N[C@@H](CCCCN)C(=O)N[C@@H](CCCCN)C(=O)N[C@@H](CO)C(=O)N[C@@H](CO)C(=O)N[C@@H](C)C(=O)N[C@@H](CC(C)C)C(=O)N[C@@H](Cc1ccccc1)C(N)=O [P1pal-10S] (Palmitoyl-NRSKKSSALF-NH2)"
endpoint_name = "Cmax"
result = "1000 nM"

[[record]]
compound = "CCCCCCCCCCCCCCCC(=O)N[C@@H](CCCCN)C(=O)N[C@@H](CCCCN)C(=O)N[C@@H](CO)C(=O)N[C@@H](CCCNC(=N)N)C(=O)N[C@@H](C)C(=O)N[C@@H](CC(C)C)C(=O)N[C@@H](Cc1ccccc1)C(N)=O [P1pal-7] (Palmitoyl-KKSRALF-NH2)"
endpoint_name = "Cmax"
result = "1100 nM"

